Data origin: ChEMBL document CHEMBL5500393

Please provide measured MIC for the entries that follow.
- Tested on: Staphylococcus aureus
- method summary: Antimicrobial activity against […] Staphylococcus aureus USA300 measured after 24 hrs by CLSI protocol based microdilution method
- Format: functional

Cn1c(C2CC(=O)N(c3noc4ccccc34)C2)nc2ccccc21 (stereo not drawn) | > 32 µg/mL
Cn1c(CCC(=O)NCCNC(=O)Cc2ccccc2)nc2ccccc21 | > 32 µg/mL

Please give MIC for each item listed below.
1. Cn1c(CCC(=O)NCc2ccccc2)nc2ccccc21
2. Cn1ccc(N2CC(c3nc4ccccc4n3C)CC2=O)n1 (stereo not drawn)
3. Cn1c(C(=O)NCc2ccccc2)nc2ccccc21
4. Cn1c(C2CC(=O)N(c3ccc(N4CCOCC4)cc3)C2)nc2ccccc21 (stereo not drawn)
5. Cn1c(C2CC(=O)N(c3cccc(Cl)c3F)C2)nc2ccccc21 (stereo not drawn)

Result:
> 32 µg/mL
> 32 µg/mL
> 32 µg/mL
> 32 µg/mL
8 µg/mL

Please give MIC for each item listed below.
1. Cc1ccccc1N1CC(c2nc3ccccc3n2C)CC1=O (stereo not drawn)
2. Cn1c(C2CC(=O)N(c3ccc(O)c(O)c3)C2)nc2ccccc21 (stereo not drawn)
3. Cn1c(C2CC(=O)N(c3cccc(Cl)c3)C2)nc2ccccc21 (stereo not drawn)

Result:
32 µg/mL
> 32 µg/mL
32 µg/mL

Please give MIC for each item listed below.
1. CCn1c(C2CC(=O)N(c3cccc(Br)c3C)C2)nc2ccccc21 (stereo not drawn)
2. CCCn1c(C2CC(=O)N(c3cccc(Br)c3C)C2)nc2ccccc21 (stereo not drawn)
3. Cn1c(C2CC(=O)N(c3cccc(-c4ccccc4)c3)C2)nc2ccccc21 (stereo not drawn)
4. Cn1c(C2CC(=O)N(c3ccc(Br)c(Br)c3)C2)nc2ccccc21 (stereo not drawn)
5. Cc1c(O)cccc1N1CC(c2nc3ccccc3n2C)CC1=O (stereo not drawn)

Result:
1. 1 µg/mL
2. 8 µg/mL
3. > 32 µg/mL
4. > 32 µg/mL
5. 8 µg/mL

Please give MIC for each item listed below.
1. Cc1c(Br)cccc1N1CC(c2nc3cc(F)c(F)cc3n2C)CC1=O (stereo not drawn)
2. Cc1c(N2CC(c3nc4ccccc4n3C)CC2=O)cccc1[N+](=O)[O-] (stereo not drawn)
3. Cc1c(N2CC(c3nc4ccccc4n3C)CC2=O)cccc1C(F)(F)F (stereo not drawn)
4. CC(=O)c1ccc(N2CC(c3nc4ccccc4n3C)CC2=O)cc1 (stereo not drawn)

Result:
["> 32 µg/mL", "16 µg/mL", "8 µg/mL", "> 32 µg/mL"]

Please give MIC for each item listed below.
1. Cc1cccc(N2CCC(c3nc4ccccc4n3C)CC2)c1C
2. Cc1c(Cl)cccc1N1CC(c2nc3ccccc3n2C)CC1=O (stereo not drawn)
3. Cc1cccc(C(=O)NCCNC(=O)c2nc3ccccc3n2C)c1C

Result:
> 32 µg/mL
4 µg/mL
> 32 µg/mL

Problem: # input compound: Cn1c(C2CC(=O)N(c3ccccc3)C2)nc2ccccc21 (stereo not drawn) ; wanted: its MIC
Result: > 32 µg/mL

----------
- Test system: Staphylococcus aureus
- method summary: Antimicrobial activity against […] Staphylococcus aureus USA300 measured after 24 hrs by CLSI protocol based microdilution method
- Type: functional
Please provide measured MIC for the entries that follow.
Numbers only, in µg/mL.

Cn1c(C2CC(=O)N(c3cccc(F)c3Br)C2)nc2ccccc21 (stereo not given) | 32
Cn1c(C2CC(=O)N(c3cccc4ccccc34)C2)nc2ccccc21 (stereo not given) | 8
Cn1c(C2CC(=O)N(c3cccc(Br)c3F)C2)nc2ccccc21 (stereo not given) | 4

Kindly review the next molecule as well.
Problem: # input molecule: Cn1c(C2CC(=O)N(c3cccc(Cl)c3Cl)C2)nc2ccccc21 (stereo not given) ; wanted: its MIC
Result: 2

----------
- assay system: Enoyl-[acyl-carrier-protein] reductase [NADPH] FabI (Staphylococcus aureus) (UniProt Q6GI75)
- Sequence (Q6GI75 whole entry): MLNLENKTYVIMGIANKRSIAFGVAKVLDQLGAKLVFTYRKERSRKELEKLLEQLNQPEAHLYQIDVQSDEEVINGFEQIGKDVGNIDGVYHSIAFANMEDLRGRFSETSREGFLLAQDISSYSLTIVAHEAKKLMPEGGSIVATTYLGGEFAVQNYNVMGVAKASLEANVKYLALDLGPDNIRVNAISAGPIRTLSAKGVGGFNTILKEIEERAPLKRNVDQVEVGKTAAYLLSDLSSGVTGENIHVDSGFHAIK
- method summary: Inhibition of N-terminal his 6 tagged Staphylococcus aureus Fabi (1 to […] residues) expressed in Escherichia coli BL21 at 1 uM incubated for 30 mins in presence of NADPH by fluorescence based microplate reader analysis relative to control
If the reported inhibition equals or exceeds 60%, assign met. If not, assign not met.

Some entries whose results are on file:
Cc1cccc(N2CC(c3nc4ccccc4n3C)CC2=O)c1C (stereo unspecified) | not met
Cn1c(C2CC(=O)N(c3cccc(Cl)c3Br)C2)nc2ccccc21 (stereo unspecified) | not met
Cc1c(N2CC(c3nc4ccccc4n3C)CC2=O)cccc1C(F)(F)F (stereo unspecified) | met

Problem: Can Cn1c(C2CC(=O)N(CCc3ccccc3)C2)nc2ccccc21 (stereo unspecified) be said to have inhibition at or above 60%?
Result: not met

Problem: Can `Cc1cccc(NC(=O)CCNC(=O)c2nc3ccccc3n2C)c1C` be said to have inhibition at or above 60%?
Result: not met

Problem: Can COc1c(Br)cccc1N1CC(c2nc3ccccc3n2C)CC1=O (stereo unspecified) be said to have inhibition at or above 60%?
Result: met

----------
- System: Staphylococcus aureus
- method summary: Antimicrobial activity against […] Staphylococcus aureus ATCC43300 measured after 24 hrs by CLSI protocol based microdilution method
- Format: functional
measure: MIC

Cn1c(CCC(=O)NCCC(=O)NCc2ccccc2)nc2ccccc21 | > 32 µg/mL
Cn1ccc(N2CC(c3nc4ccccc4n3C)CC2=O)n1 (stereo unspecified) | > 32 µg/mL
Cn1c(C2CC(=O)N(c3cccc(F)c3F)C2)nc2ccccc21 (stereo unspecified) | 32 µg/mL
Cn1c(C2CC(=O)N(c3ccc4ncsc4c3)C2)nc2ccccc21 (stereo unspecified) | > 32 µg/mL
Cc1cccc(N2CC(c3nc4ccccc4n3C)CC2=O)c1C (stereo unspecified) | 16 µg/mL

Please give MIC for each item listed below.
1. Cc1cccc(NC(=O)CCc2nc3ccccc3n2C)c1C
2. Cn1c(C2CC(=O)N(c3noc4ccccc34)C2)nc2ccccc21 (stereo unspecified)
3. Cn1c(C2CC(=O)N(c3ccc(F)c(F)c3)C2)nc2ccccc21 (stereo unspecified)
4. Cc1cccc(N2CCC(c3nc4ccccc4n3C)CC2)c1C

Result:
> 32 µg/mL
> 32 µg/mL
> 32 µg/mL
> 32 µg/mL

Please give MIC for each item listed below.
1. Cn1c(C2CC(=O)N(c3ccc(N4CCOCC4)cc3)C2)nc2ccccc21 (stereo unspecified)
2. Cn1c(C2CC(=O)N(C3CCCCC3)C2)nc2ccccc21 (stereo unspecified)

Result:
1: > 32 µg/mL; 2: > 32 µg/mL

----------
- assay system: UniProt:Q6GI75
- method summary: Inhibition of N-terminal his 6 tagged Staphylococcus aureus Fabi (1 to […] residues) expressed in Escherichia coli BL21 at 10 uM incubated for 30 mins in presence of NADPH by fluorescence based microplate reader analysis relative to control
Please provide measured inhibition for the entries that follow.
One number for each entry, in %.

// solved cases for inhibition follow
Cn1c(C2CC(=O)N(c3cccc(F)c3F)C2)nc2ccccc21 (stereo not given) | 91.8
COc1ccc(N2CC(c3nc4ccccc4n3C)CC2=O)cc1Br (stereo not given) | 72.3
Cn1c(C2CC(=O)N(c3cccc(Br)c3Cl)C2)nc2ccccc21 (stereo not given) | 97.4

Kindly review the next compound as well.
Problem: # input compound: Cn1c(C2CC(=O)N(c3ccc(N4CCOCC4)cc3)C2)nc2ccccc21 (stereo not given) ; wanted: its inhibition
Result: 7.7

----------
- method summary: Clearance in female Sprague-Dawley rat at 20 mg/kg, po measured upto 24 hrs by LC-MS analysis
- Format: ADME, organism-based
- applied conditions: in vivo
measure: CL/F (L/h/kg)
Numbers only, in L/h/kg.

// solved cases for CL/F follow
Cc1c(CN(C)C(=O)/C=C/c2cnc3c(c2)CCC(=O)N3)oc2ccccc12 | 4.3
Cc1c(Br)cccc1N1CC(c2nc3ccccc3n2C)CC1=O (stereo not drawn) | 1.6

Kindly review the next compound as well.
Problem: # input compound: COc1c(Br)cccc1N1CC(c2nc3ccccc3n2C)CC1=O (stereo not drawn) ; wanted: its CL/F
Result: 5.2

----------
- method summary: Drug concentration in BALB/c mouse plasma at 800 mg/kg, po measured after 1 hr by LC-MS analysis
- Assay type: ADME, organism-based
measure: concentration at 1 h (ng/mL)
Answers are plain numbers, in ng/mL.

Cc1c(Br)cccc1N1CC(c2nc3ccccc3n2C)CC1=O (configuration not stated) | 53600

Problem: # input molecule: COc1c(Br)cccc1N1CC(c2nc3ccccc3n2C)CC1=O (configuration not stated) ; wanted: its concentration at 1 h
Result: 32700

----------
- Tested on: Staphylococcus aureus
- method summary: Antimicrobial activity against […] Staphylococcus aureus USA300 measured after 24 hrs by CLSI protocol based microdilution method
- Type: functional
Field 'label' (enum: Criterion met / Criterion not met). Set to Criterion met when MIC is strictly under 6 µg/mL; else Criterion not met.

Some entries whose results are on file:
Cn1c(C2CC(=O)N(c3ccc4ncsc4c3)C2)nc2ccccc21 (stereo not drawn) | Criterion not met
O=C1CC(c2nc3ccccc3[nH]2)CN1c1cccc2ccccc12 (stereo not drawn) | Criterion not met
Cn1c(C(=O)NCCC(=O)NCc2ccccc2)nc2ccccc21 | Criterion not met
Cc1c(Br)cccc1N1CC(c2nc3ccccc3[nH]2)CC1=O (stereo not drawn) | Criterion not met
Cc1cccc(NC(=O)CCNC(=O)CCc2nc3ccccc3n2C)c1C | Criterion not met

Problem: Please determine if Cc1c(Br)cccc1N1CC(c2nc3ccccc3n2C(C)C)CC1=O (stereo not drawn) is below 6 µg/mL in terms of MIC.
Result: Criterion not met

Problem: Please determine if Cn1c(C2CC(=O)N(c3cccc(Br)c3Cl)C2)nc2ccccc21 (stereo not drawn) is below 6 µg/mL in terms of MIC.
Result: Criterion met

Problem: Please determine if `Cn1c(CCC(=O)NCCC(=O)NCc2ccccc2)nc2ccccc21` is below 6 µg/mL in terms of MIC.
Result: Criterion not met
